For each record, write down the corresponding one-hybrid fitness for binding parS DNA.
B1: Caulobacter ParB omega fusion; a variant is named by its letters at X, in order, B8GW30 (parent)
chain: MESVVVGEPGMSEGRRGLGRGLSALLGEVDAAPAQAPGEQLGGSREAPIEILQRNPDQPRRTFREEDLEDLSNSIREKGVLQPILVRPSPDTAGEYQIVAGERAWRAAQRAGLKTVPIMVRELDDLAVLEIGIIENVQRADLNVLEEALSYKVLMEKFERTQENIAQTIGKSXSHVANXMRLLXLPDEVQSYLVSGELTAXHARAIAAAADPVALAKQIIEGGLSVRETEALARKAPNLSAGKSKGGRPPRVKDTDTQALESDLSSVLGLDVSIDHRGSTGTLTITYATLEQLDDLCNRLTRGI

Variants of: B1
assayName: one-hybrid fitness for binding parS DNA (scaled: cognate 1, non-cognate 0); higher = stronger binding
conditions: with parS DNA site
The full ranking holds about 81,000 sequences; the median of “one-hybrid fitness for binding parS DNA” is about -0.17, and the highest 2% start at about 0.51. What follows is part of a selection rich in the highest values, with near analogues and random picks from the rest.

Prompt line: May I ask what one-hybrid fitness for binding parS DNA has been recorded for "QKKI" ?
Response line: ≤ 0.2

Prompt line: May I ask what one-hybrid fitness for binding parS DNA has been recorded for "GAIS" ?
Response line: ≤ 0.2

Prompt line: May I ask what one-hybrid fitness for binding parS DNA has been recorded for "RSPA" ?
Response line: ≤ 0.2

Prompt line: May I ask what one-hybrid fitness for binding parS DNA has been recorded for "RSYA" ?
Response line: 0.602

Prompt line: May I ask what one-hybrid fitness for binding parS DNA has been recorded for "DIAI" ?
Response line: ≤ 0.2

Prompt line: May I ask what one-hybrid fitness for binding parS DNA has been recorded for "YDNV" ?
Response line: ≤ 0.2

Prompt line: May I ask what one-hybrid fitness for binding parS DNA has been recorded for "PTQM" ?
Response line: ≤ 0.2

Prompt line: May I ask what one-hybrid fitness for binding parS DNA has been recorded for "RVLN" ?
Response line: 0.423

Prompt line: May I ask what one-hybrid fitness for binding parS DNA has been recorded for "RFGC" ?
Response line: 0.882

Prompt line: May I ask what one-hybrid fitness for binding parS DNA has been recorded for "RVGR" ?
Response line: ≤ 0.2

Prompt line: May I ask what one-hybrid fitness for binding parS DNA has been recorded for "MWSS" ?
Response line: ≤ 0.2

Prompt line: May I ask what one-hybrid fitness for binding parS DNA has been recorded for "RIGM" ?
Response line: 0.268

Prompt line: May I ask what one-hybrid fitness for binding parS DNA has been recorded for "DSYA" ?
Response line: ≤ 0.2

Prompt line: May I ask what one-hybrid fitness for binding parS DNA has been recorded for "RIGC" ?
Response line: 0.955

Prompt line: May I ask what one-hybrid fitness for binding parS DNA has been recorded for "LDKA" ?
Response line: ≤ 0.2

Prompt line: May I ask what one-hybrid fitness for binding parS DNA has been recorded for "TAAN" ?
Response line: ≤ 0.2

Prompt line: May I ask what one-hybrid fitness for binding parS DNA has been recorded for "SIHC" ?
Response line: ≤ 0.2

Prompt line: May I ask what one-hybrid fitness for binding parS DNA has been recorded for "TAIS" ?
Response line: ≤ 0.2

Prompt line: May I ask what one-hybrid fitness for binding parS DNA has been recorded for "RIGF" ?
Response line: 0.234

Prompt line: May I ask what one-hybrid fitness for binding parS DNA has been recorded for "RVLD" ?
Response line: 0.245

Prompt line: May I ask what one-hybrid fitness for binding parS DNA has been recorded for "RVGG" ?
Response line: 1.01

Prompt line: May I ask what one-hybrid fitness for binding parS DNA has been recorded for "RVGK" ?
Response line: ≤ 0.2

Source of measurements: a collection of fitness landscapes (doi:10.1016/j.celrep.2020.107928)
